experiment: Intrinsic clearance in liver microsomes; type: in vitro ADME; settings: human
Catalogue of microsomal CLint values

molecule | value qualifier | microsomal CLint / µL/min/mg
COc1c(-c2coc3cc4c(cc3c2=O)CC(O)C(C)(C)O4)ccc2c1C=CC(C)(C)O2 (centres unmarked) [Mundulone, mundulone] | < | 20
COc1c(-c2coc3cc4c(cc3c2=O)CC(OC(C)=O)C(C)(C)O4)ccc2c1C=CC(C)(C)O2 (centres unmarked) [MA, mundulone acetate] | = | 27.2

---

assay: Intrinsic clearance in liver microsomes; format: in vitro ADME; conditions: mouse
measured property: microsomal CLint (µL/min/mg)

compound | measured property | value
COc1c(-c2coc3cc4c(cc3c2=O)CC(O)C(C)(C)O4)ccc2c1C=CC(C)(C)O2 (centres unmarked) | microsomal CLint | 47.1
COc1c(-c2coc3cc4c(cc3c2=O)CC(OC(C)=O)C(C)(C)O4)ccc2c1C=CC(C)(C)O2 (centres unmarked) [MA, mundulone acetate] | microsomal CLint | 886

---

test: Human plasma protein binding; assay type: in vitro ADME
# reported fraction unbound; entries follow

molecule | fraction unbound
COc1c(-c2coc3cc4c(cc3c2=O)CC(OC(C)=O)C(C)(C)O4)ccc2c1C=CC(C)(C)O2 (centres unmarked) [MA, mundulone acetate] | 0.001
COc1c(-c2coc3cc4c(cc3c2=O)CC(O)C(C)(C)O4)ccc2c1C=CC(C)(C)O2 (centres unmarked) | 0.007

---

# microsomal CLint per entry
experiment: Intrinsic clearance in liver microsomes; type: in vitro ADME; settings: rat
measured property: microsomal CLint (µL/min/mg)

molecule | value
COc1c(-c2coc3cc4c(cc3c2=O)CC(OC(C)=O)C(C)(C)O4)ccc2c1C=CC(C)(C)O2 (centres unmarked) [MA, mundulone acetate] | 586
COc1c(-c2coc3cc4c(cc3c2=O)CC(O)C(C)(C)O4)ccc2c1C=CC(C)(C)O2 (centres unmarked) | 30.7

---

Listing of recorded Papp by entry.
assay: MDCK permeability; assay type: in vitro ADME; details: dog
measured property: Papp (×10⁻⁶ cm/s)

compound | measured property | unit label | value
COc1c(-c2coc3cc4c(cc3c2=O)CC(OC(C)=O)C(C)(C)O4)ccc2c1C=CC(C)(C)O2 (centres unmarked) [MA, mundulone acetate] | Papp | ×10⁻⁶ cm/s | 22.1
COc1c(-c2coc3cc4c(cc3c2=O)CC(O)C(C)(C)O4)ccc2c1C=CC(C)(C)O2 (centres unmarked) [Mundulone, mundulone] | Papp | ×10⁻⁶ cm/s | 49.4
